- test: Approximate solubility in various solvents by aliquot addition, visual dissolution
- Format: physicochemical
- test_context: organic solvent or mixture, thermodynamic from solid, solvent: Tetrahydrofuran; amorphous obtained by Preparation Method 3

| compound | solubility |
| --- | --- |
| Cc1ccsc1C(=CCCN1CCC[C@@H](C(=O)O)C1)c1sccc1C.Cl [tiagabine HCl amorphous, tiagabine hydrochloride] | > 562 mg/mL |

###

- test: Approximate solubility in various solvents by aliquot addition, visual dissolution
- Assay type: physicochemical
- test_context: organic solvent or mixture, thermodynamic from solid, solvent: Acetonitrile; amorphous obtained by Preparation Method 3

| molecule | solubility |
| --- | --- |
| Cc1ccsc1C(=CCCN1CCC[C@@H](C(=O)O)C1)c1sccc1C.Cl [tiagabine HCl amorphous, tiagabine hydrochloride] | < 26 mg/mL |
